system.name: Hsp90/Cdc37 (Homo sapiens)
Construct: The Hsp90/Cdc37 split Renilla luciferase assay using the full length Hsp90 for the compound screening was described previously; expressed in transfected cells; host or cells: HEK293 EBNA cells, cleared lysates
assay.name: Hsp90/Cdc37 split Renilla luciferase assay, full length Hsp90 (cell lysate; IC50 and 20 μM validation)
Type: biochemical
condition.description: MolPort Screening-3; tested concentration of drugs 20 μM; average of 3 wells (DMSO 248028)
recorded.metric: Average RLU (RLU)

1) O=C(CSS(=O)(=O)O)Nc1cccc(C(F)(F)F)c1: 117361

A: N=C(CSS(=O)(=O)O)NCC12CC3CC(CC(C3)C1)C2
B: O=C(O[C@@H]1Cc2c(O)cc(O)cc2O[C@@H]1c1ccc(O)c(O)c1)c1cc(O)c(O)c(O)c1
Request: I'd appreciate it if you could identify which of A and B has the greater Average RLU. Answer by stating the label of the chosen item.
Response: B

====

Tested on: Hsp90/Cdc37
assay.name: FIMM screening in split Renilla luciferase assay with hypomorphic NRL-Hsp90 construct, 20 μM
Assay type: biochemical
condition.description: DMSO = 1.00
recorded.metric: normalized RLU (FIMM Screening-2, scaffold based)

The following compounds have reported results that may help.
1) C=CCNC1=C2C[C@@H](C)C[C@H](OC)[C@H](O)[C@@H](C)/C=C(\C)[C@H](OC(N)=O)[C@@H](OC)/C=C\C=C(/C)C(=O)NC(=CC1=O)C2=O [17-AAG, 17-allylamino-17-demethoxy-geldanamycin, reference compound]: 0.89
2) Cc1cc(OCC(=O)Nc2ccccc2C(=O)O)cc(C)c1Cl: 0.66
3) C/C1=C\[C@H](C)C[C@H](C)[C@H](Cc2cnco2)OC(=O)/C(C)=C/[C@H](C)C[C@H](C)[C@H](Cc2cnco2)OC1=O [conglobatin A, reference compound]: 0.49
4) O=C(CSc1nc2ccccc2s1)c1ccc(O)c(O)c1: 0.64

A: O=C(O)c1cc(S(=O)(=O)Nc2cccc(Cl)c2)ccc1O
B: N=C(N)SCc1cc(=O)[nH]c(=O)[nH]1
Request: Problem: Given the entries A and B , determine which has the lower reported normalized RLU (FIMM Screening-2, scaffold based). Answer by stating the label of the chosen item.
Response: B

====

system.name: Hsp90/Cdc37 (Homo sapiens, UniProt P07900)
Construct: The Hsp90/Cdc37 split Renilla luciferase assay using the full length Hsp90 for the compound screening was described previously
assay.name: Hsp90/Cdc37 split Renilla luciferase assay, full length Hsp90 (cell lysate; IC50 and 20 μM validation)
condition.description: full length Hsp90; split Renilla luciferase assay, cell lysate
recorded.metric: IC50 (µM)

1. C/C1=C\[C@H](C)C[C@H](C)[C@H](Cc2cnco2)OC(=O)/C(C)=C/[C@H](C)C[C@H](C)[C@H](Cc2cnco2)OC1=O [conglobatin A, reference compound]: 23

a: O=c1c(O)cc([C@H]2Oc3cc(O)cc(O)c3C[C@H]2O)cc2c([C@H]3Oc4cc(O)cc(O)c4C[C@H]3O)cc(O)c(O)c12
b: O=C(CSc1nc2ccccc2s1)c1ccc(O)c(O)c1
Request: Problem: Given the entries a and b , determine which has the lower reported IC50. Answer by stating the label of the chosen item.
Response: a

====

system.name: Hsp90/Cdc37 (Homo sapiens)
Construct: The Hsp90/Cdc37 split Renilla luciferase assay using the full length Hsp90 for the compound screening was described previously; expressed in transfected cells; host or cells: HEK293 EBNA cells, cleared lysates
assay.name: Hsp90/Cdc37 split Renilla luciferase assay, full length Hsp90 (cell lysate; IC50 and 20 μM validation)
Assay type: biochemical
condition.description: MolPort Screening-3; tested concentration of drugs 20 μM; RLU normalized to DMSO (=1.00)
recorded.metric: normalized RLU

P: N=C(CSS(=O)(=O)O)NCC12CC3CC(CC(C3)C1)C2
Q: O=C(O[C@@H]1Cc2c(O)cc(O)cc2O[C@@H]1c1ccc(O)c(O)c1)c1cc(O)c(O)c(O)c1
Request: I'd appreciate it if you could identify which of P and Q has the greater normalized RLU. Answer by stating the label of the chosen item.
Response: Q
(Q: 0.33, P: 0.11)

I: C=CCNC1=C2C[C@@H](C)C[C@H](OC)[C@H](O)[C@@H](C)/C=C(\C)[C@H](OC(N)=O)[C@@H](OC)/C=C\C=C(/C)C(=O)NC(=CC1=O)C2=O [17-AAG, 17-allylamino-17-demethoxy-geldanamycin, reference compound]
II: O=C(CSS(=O)(=O)O)Nc1cccc(C(F)(F)F)c1
Request: Problem: Given the entries I and II , determine which has the lower reported normalized RLU. Answer by stating the label of the chosen item.
Response: II
(II: 0.47, I: 0.91)

====

system.name: Hsp90/Cdc37 (Homo sapiens)
Construct: The Hsp90/Cdc37 split Renilla luciferase assay using the full length Hsp90 for the compound screening was described previously
assay.name: Hsp90/Cdc37 split Renilla luciferase assay, full length Hsp90 (cell lysate; IC50 and 20 μM validation)
condition.description: full length Hsp90; split Renilla luciferase assay, cell lysate
Experimental: In the second in silico screening of the FIMM database, we employed the four identified chemical scaffolds (Figure S2B) for the visual inspection of the FIMM compound library. […] The Hsp90/Cdc37 split Renilla luciferase assay using the full length Hsp90 for the compound screening was described previously. […] Just before the reading, 20 µL assay buffer containing 2× Renilla luciferase substrate (coelenterazine) was added. […]
recorded.metric: IC50 (µM)

The following molecules have reported results that may help.
1. O=C(O[C@@H]1Cc2c(O)cc(O)cc2O[C@@H]1c1cc(O)c(=O)c2c(O)c(O)cc([C@H]3Oc4cc(O)cc(O)c4C[C@H]3O)c2c1)c1cc(O)c(O)c(O)c1: 14.1
2. CCOc1ccc(C(=O)c2ccc(O)c(O)c2O)cc1 [×1540, 2,3,4-TRIHYDROXY-4'-ETHOXYBENZOPHENONE]: 44
3. O=C(O[C@@H]1Cc2c(O)cc(O)cc2O[C@@H]1c1cc(O)c(O)c(O)c1)c1cc(O)c(O)c(O)c1 [compound 3, Epigallocatechin gallate]: 88

A: O=C(O[C@@H]1Cc2c(O)cc(O)cc2O[C@@H]1c1cc(O)c(=O)c2c(O)c(O)cc([C@H]3Oc4cc(O)cc(O)c4C[C@H]3OC(=O)c3cc(O)c(O)c(O)c3)c2c1)c1cc(O)c(O)c(O)c1 [compound 2, Theaflavin 3,3-digallate]
B: O=C(O[C@@H]1Cc2c(O)cc(O)cc2O[C@@H]1c1ccc(O)c(O)c1)c1cc(O)c(O)c(O)c1
Request: I'd appreciate it if you could identify which of A and B has the greater IC50. Answer by stating the label of the chosen item.
Response: A
(A: 75 µM, B: 28 µM)

====

system.name: N-Hsp90/Cdc37 (Homo sapiens)
Construct: only the N-terminal ATP-ase domain of Hsp90 (N-Hsp90, residues 1-223)
assay.name: N-Hsp90/Cdc37 split Renilla luciferase assay (N-terminal Hsp90 fragment, residues 1-223)
condition.description: cell lysate
recorded.metric: IC50 (µM)

The following compounds have reported results that may help.
1) NC(CSS(=O)(=O)O)=NCCC12CC3CC(CC(O)(C3)C1)C2 [×7648]: 14
2) N=C(CSS(=O)(=O)O)NCC12CC3CC(CC(C3)C1)C2 [×6506]: 4.1

A: O=C(O[C@@H]1Cc2c(O)cc(O)cc2O[C@@H]1c1cc(O)c(=O)c2c(O)c(O)cc([C@H]3Oc4cc(O)cc(O)c4C[C@H]3OC(=O)c3cc(O)c(O)c(O)c3)c2c1)c1cc(O)c(O)c(O)c1 [compound 2, Theaflavin 3,3-digallate]
B: Cc1cc(OCC(=O)Nc2ccccc2C(=O)O)cc(C)c1Cl [×1127]
Request: I'd appreciate it if you could identify which of A and B has the greater IC50. Answer by stating the label of the chosen item.
Response: A
(A: 81 µM, B: 11 µM)

====

system.name: Hsp90/Cdc37 (Homo sapiens, UniProt P07900)
Construct: The Hsp90/Cdc37 split Renilla luciferase assay using the full length Hsp90 for the compound screening was described previously
assay.name: Hsp90/Cdc37 split Renilla luciferase assay, full length Hsp90 (cell lysate; IC50 and 20 μM validation)
condition.description: full length Hsp90; split Renilla luciferase assay, cell lysate
pIC50: −log10 of the molar value.
recorded.metric: pIC50

1) O=C(CSS(=O)(=O)O)Nc1cccc(C(F)(F)F)c1 [×1625]: 4.39

1: Cc1cc(OCC(=O)Nc2ccccc2C(=O)O)cc(C)c1Cl [×1127]
2: Cc1ccc(Nc2ccc(C(=O)O)cc2N)cc1 [compound 7, 3-amino-4-(4-toluidino)benzoic acid]
3: N=C(CSS(=O)(=O)O)NCC12CC3CC(CC(C3)C1)C2 [×6506]
4: NC(CSS(=O)(=O)O)=NCCC12CC3CC(CC(O)(C3)C1)C2 [×7648]
Request: Hey, can you sort those compounds up there by pIC50, smallest first? In plain terms: list the labels in the order you were asked to.
Response: 2, 1, 4, 3
(2: 3.75, 1: 4.39, 4: 4.74, 3: 5.30)

Entry source: paper PMC7927014
